Molecular target: 12-LOX (Homo sapiens)
Sequence (P18054 1-663): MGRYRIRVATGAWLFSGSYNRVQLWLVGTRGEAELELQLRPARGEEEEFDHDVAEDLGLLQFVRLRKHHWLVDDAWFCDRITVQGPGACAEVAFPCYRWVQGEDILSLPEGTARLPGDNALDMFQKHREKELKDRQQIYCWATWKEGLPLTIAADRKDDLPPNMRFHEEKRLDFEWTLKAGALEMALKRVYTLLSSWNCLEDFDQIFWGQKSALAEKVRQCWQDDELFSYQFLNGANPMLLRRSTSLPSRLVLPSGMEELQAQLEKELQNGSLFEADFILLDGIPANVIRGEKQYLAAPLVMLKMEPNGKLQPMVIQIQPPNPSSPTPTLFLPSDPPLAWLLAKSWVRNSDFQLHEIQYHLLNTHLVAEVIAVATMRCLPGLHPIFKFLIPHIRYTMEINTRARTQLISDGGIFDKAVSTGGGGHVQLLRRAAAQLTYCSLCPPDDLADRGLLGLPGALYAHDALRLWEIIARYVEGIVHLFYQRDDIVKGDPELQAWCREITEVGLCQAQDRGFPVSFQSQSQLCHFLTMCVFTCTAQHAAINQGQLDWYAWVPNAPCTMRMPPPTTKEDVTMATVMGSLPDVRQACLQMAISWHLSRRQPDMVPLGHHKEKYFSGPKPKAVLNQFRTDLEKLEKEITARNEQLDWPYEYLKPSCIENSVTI
Experiment: 12-LOX fluorescent assay (in vitro lipoxygenase inhibition)
Assay type: biochemical
Settings: 100 nM recombinant 12-LOX, 20 μM AA, DHR123 fluorescence; several values in a cell = repeat determinations; read-out: IC50 (μM) values for in vitro lipoxygenase inhibition, 12-LOX
Please go through the items and note down their IC50.
One number for each entry, in µM.

Illustrative cases are given below, each with its answer.
Cc1cccc(C)c1-c1ccc(Nc2ccccc2)cc1NCCn1cncn1: 0.14
Fc1ccc(CNc2ccc(NCCn3cncn3)c(-c3ccccc3)c2F)cc1: 0.02
c1ccc(Nc2ccc(C3CCCO3)c(NCCn3cncn3)c2)cc1 (stereo not drawn): 0.36
Cc1cc(Nc2ccc(Cl)c(F)c2)ccc1NCC1(Cn2cccn2)COC1: 0.04

Provide the reported IC50 of each entry below, same order.
1. c1ccc(Nc2cccc(-c3ccccc3)c2NCCn2cncn2)cc1
2. c1ccc(CNc2cc(-c3ccccc3)c(NCCn3cncn3)cn2)cc1

1. 0.2
2. 0.08

Provide the reported IC50 of each entry below, same order.
1. Cc1cc(Nc2ccc(Cl)c(F)c2)ccc1NCC1(CN2CCOCC2)COC1
2. c1ncn(CC2(CNc3ccc(NCC4CCCCC4)cc3)COC2)n1
3. CN(CCn1cncn1)c1cccc(Nc2ccc(F)cc2)c1

1: 0.02; 2: 0.05; 3: 0.26
